The reported measurements were obtained from PubChem BioAssay (NCI).

- Test system: HL-60(TB) leukemia
- assay procedure: NCI tumour cell line growth inhibition, 48 h; in the data active = GI50 below about 0.43 µM; inactive = the rest
Permitted responses: active, inactive

**Q:** Hi team, can someone confirm the assay call for COC(=O)C1=CNC=C(C(=O)OC)C1C1=CC(=O)C(C)=CC1=O ?
**A:** inactive

**Q:** Hi team, can someone confirm the assay call for Cc1cc(C(=O)Nc2ncc(Cc3cccc(C(F)(F)F)c3)s2)c2ccccc2n1 ?
**A:** inactive

**Q:** Hi team, can someone confirm the assay call for CCCCC(O)(c1ccc(Cl)cc1)C(CN1CCOCC1)c1ccc(Cl)cc1 (configuration not stated) ?
**A:** inactive

**Q:** Hi team, can someone confirm the assay call for CCCCCCCC/C=C/CCCCCCCC(=O)OC[C@H]1O[C@@H](n2ccc(N)nc2=O)C(F)(F)[C@@H]1O ?
**A:** active

**Q:** Hi team, can someone confirm the assay call for COc1ccc(Nc2c3ccccc3nc3occc23)cc1 ?
**A:** inactive

**Q:** Hi team, can someone confirm the assay call for O=C(NC1=CC(=O)c2ccccc2C1=O)c1ccccc1 ?
**A:** inactive

**Q:** Hi team, can someone confirm the assay call for CN1C/C=C\CCOc2cccc(c2)-c2ccnc(n2)Nc2cccc(c2)C1 ?
**A:** active

**Q:** Hi team, can someone confirm the assay call for NS(=O)(=O)c1ccc(N=Nc2c(O)[nH]c3ccc(-c4cnco4)cc23)cc1 ?
**A:** inactive

**Q:** Hi team, can someone confirm the assay call for CC(C)(C)c1cc(C(C)(C)C)cc(S(=O)(=O)Nc2cc3ccccc3cc2C(=O)NCCN)c1 ?
**A:** inactive

**Q:** Hi team, can someone confirm the assay call for N=C1C(c2nc3ccccc3s2)=C(O)CN1c1cc(C(F)(F)F)ccc1Cl ?
**A:** inactive

**Q:** Hi team, can someone confirm the assay call for CCC[CH2][Sn]1([CH2]CCC)[O]CC(CN2CCCC2)[O]1 (configuration not stated) ?
**A:** inactive

**Q:** Hi team, can someone confirm the assay call for COc1cc2nc3cc([N+](=O)[O-])ccc3c(NCCCNCCO)c2cc1OC ?
**A:** inactive

**Q:** Hi team, can someone confirm the assay call for CCOC(=O)c1c(C)n(Cc2ccc(Cl)cc2Cl)c2c1c(CN(C)C)c(O)c1[nH]cnc12 ?
**A:** inactive

**Q:** Hi team, can someone confirm the assay call for COc1cc2c3c(n(CCCNC(=O)OCC4c5ccccc5-c5ccccc54)c(=O)c2cc1OC)-c1cc2c(cc1/C3=C\CCNC(=O)OCC1c3ccccc3-c3ccccc31)OCO2 ?
**A:** inactive

**Q:** Hi team, can someone confirm the assay call for C[C@@]12CC=C3c4nc(Nc5cccc(O)c5)sc4CC[C@]3(C)[C@H]1CC[C@]1(C)C(=O)CC[C@@H]21 ?
**A:** inactive

**Q:** Hi team, can someone confirm the assay call for Cc1cc(S(=O)(=O)Nc2nnc(-c3ccccc3)c(-c3ccccc3)n2)c(SCC(N)=O)cc1Cl ?
**A:** inactive

**Q:** Hi team, can someone confirm the assay call for COc1ccccc1CNCCCN1C(=O)c2ccc3c4c(ccc(c24)C1=O)C(=O)N(CCCOCCCCOCCCN)C3=O ?
**A:** inactive

* * *

Kindly state GI50 for each of the entries shown.
- Test system: OVCAR-5 ovarian
- assay procedure: NCI tumour cell line growth inhibition, 48 h

**Q:** Which value of GI50 has been reported for O=C(N/N=C/c1ccc(Cl)cc1)c1ccc(C(F)(F)F)nc1Nc1cccc(C(F)(F)F)c1 in the records?
**A:** 3.2 µM

**Q:** Which value of GI50 has been reported for COc1cccc2c1C(=O)c1c(O)c3c(c(O)c1C2=O)C[C@@](O)(C(C)=O)C[C@@H]3OC1OC(C)C(O)C(N)C1Br (some centres undefined) in the records?
**A:** 0.0554 µM

**Q:** Which value of GI50 has been reported for CC(=O)/C(C)=N/NC(=O)c1ccccc1O in the records?
**A:** > 100 µM

**Q:** Which value of GI50 has been reported for CC(C)(C)c1cc(C(C)(C)C)cc(S(=O)(=O)Nc2cc3ccccc3cc2C(=O)NCCN)c1 in the records?
**A:** 1.94 µM

**Q:** Which value of GI50 has been reported for CCC[CH2][Sn]1([CH2]CCC)[O]CC(CN2CCCC2)[O]1 (centres undefined) in the records?
**A:** 12.9 µM

**Q:** Which value of GI50 has been reported for COC(=O)[C@@H](C)CNS(=O)(=O)N(c1cc(C(F)(F)F)cc(C(F)(F)F)c1)C1CCN(Cc2ccc(F)cc2)CC1 in the records?
**A:** 15.8 µM

**Q:** Which value of GI50 has been reported for CN1CCN(CCCOc2ccc3nc(Nc4ccc(Cl)c(C(F)(F)F)c4)ccc3c2)CC1 in the records?
**A:** 17 µM

**Q:** Which value of GI50 has been reported for C[C@@]12CC=C3c4nc(Nc5cccc(O)c5)sc4CC[C@]3(C)[C@H]1CC[C@]1(C)C(=O)CC[C@@H]21 in the records?
**A:** 2.58 µM

**Q:** Which value of GI50 has been reported for COC(=O)C1=CNC=C(C(=O)OC)C1C1=CC(=O)C(C)=CC1=O in the records?
**A:** 17.7 µM
